# Assay system: human stromelysin (Sln) (Homo sapiens)
# Sequence (P08254 100-272 limits assumed): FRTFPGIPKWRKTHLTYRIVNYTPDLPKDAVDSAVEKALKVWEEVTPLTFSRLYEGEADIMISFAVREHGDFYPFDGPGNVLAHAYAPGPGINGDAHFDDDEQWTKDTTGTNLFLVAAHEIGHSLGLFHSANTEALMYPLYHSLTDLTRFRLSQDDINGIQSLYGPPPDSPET
# Measurement protocol: In vitro MMP inhibition assay (hydrolysis of fluorogenic MCA peptide substrate), stromelysin
# Type: biochemical
# Details: Table 1; Ki,app; MCA peptide substrate 10 μM, 37° C., pH 7.5, 2% DMSO; read-out: Sin Ki
As shown below, each of these compounds has a reported pKi value.
Lab note: report pKi as minus log10 of the concentration in molar units, number only.

Answered examples (10):
Compound | Assay readout | Measured
Cc1cc(CSC(C)(C)[C@@H](NS(=O)(=O)c2ccc(Sc3ccncc3)cc2)C(=O)NO)no1 [Example 10b] | pKi | 7.42
Cn1ccnc1CSC(C)(C)[C@@H](NS(=O)(=O)c1ccc(Oc2ccc(Br)cc2)cc1)C(=O)NO [Example 9n] | pKi | 9.70
CC(C)(SCc1ccccn1)[C@@H](NS(=O)(=O)c1ccc(Oc2ccc(F)cc2)cc1)C(=O)NO [Example 9h] | pKi | 9.08
CC(C)(SCc1cccnc1)[C@@H](NS(=O)(=O)c1ccc(Oc2ccc(F)cc2)cc1)C(=O)O [Example 3e] | pKi | 5.16
CC(C)(SCc1ccccn1)[C@@H](NS(=O)(=O)c1ccc(Oc2ccc(C#N)cc2)cc1)C(=O)O [Example 3h] | pKi | 5.09
Cc1cc(CSC(C)(C)[C@@H](NS(=O)(=O)c2ccc(Oc3ccc(Br)cc3)cc2)C(=O)NO)no1 [Example 9d] | pKi | 9.62
CC(C)(C)[C@H](NS(=O)(=O)c1ccc(Oc2ccccc2)cc1)C(=O)NO [Example 9k] | pKi | 8.38
CC(C)(SCc1ccncc1)[C@@H](NS(=O)(=O)c1ccc(Oc2ccc(F)cc2)cc1)C(=O)O [Example 3f] | pKi | 5.20
Cc1cc(CSC(C)(C)[C@@H](NS(=O)(=O)c2ccc(Oc3ccc(F)cc3)cc2)C(=O)NO)no1 [Example 9c] | pKi | 9.20
CC(C)(SCC(=O)O)[C@@H](NS(=O)(=O)c1ccc(Oc2ccc(F)cc2)cc1)C(=O)NO [Example 12] | pKi | 8.24

Prompt: // map CC(C)(C)C(NS(=O)(=O)c1ccc(Oc2ccc(Cl)cc2)cc1)C(=O)NO (stereo in doubt) [Example 9m] to recorded pKi (system: human stromelysin (Sln) (Homo sapiens))
Completion: 9.00

Prompt: Recorded pKi for CSC(C)(C)[C@@H](NS(=O)(=O)c1ccc(Oc2ccccc2)cc1)C(=O)NO [Example 9a] with human stromelysin (Sln) (Homo sapiens), please?
Completion: 8.66

* * *

Examples of molecules with documented pKi follow.
# Assay system: human collagenase-1 (HFC) (Homo sapiens, UniProt P03956)
# Sequence (P03956 100-269 limits assumed): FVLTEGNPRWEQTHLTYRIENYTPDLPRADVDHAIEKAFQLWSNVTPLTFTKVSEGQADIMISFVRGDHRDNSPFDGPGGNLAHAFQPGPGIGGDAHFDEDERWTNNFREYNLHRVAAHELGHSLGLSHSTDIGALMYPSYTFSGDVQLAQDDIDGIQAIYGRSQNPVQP
Conceptually, pKi converts a concentration in mol/L into minus its log10.

Molecule | pKi
CC(C)(C)[C@H](NS(=O)(=O)c1ccc(Oc2ccccn2)cc1)C(=O)NO [Example 10c] | 6.02

Prompt: pKi for CC(C)([C@@H](NS(=O)(=O)c1ccc(Oc2ccc(Br)cc2)cc1)C(=O)NO)[S+]([O-])Cc1ccccn1 (mixture of isomers) [Example 11] ?
Completion: 7.62

Prompt: // lookup pKi for CC(C)(C)C(NS(=O)(=O)c1ccc(Oc2ccc(Cl)cc2)cc1)C(=O)NO (stereo in doubt) [Example 9m]
Completion: 7.68

Prompt: Give its pKi value. Item: CC(C)(SCc1ccccn1)[C@@H](NS(=O)(=O)c1ccc(Oc2ccc(Br)cc2)cc1)C(=O)NO [Example 9e]
Completion: 8.39

Prompt: pKi for CSC(C)(C)[C@@H](NS(=O)(=O)c1ccc(Oc2ccc(Cl)cc2)cc1)C(=O)NO [Example 9b] ?
Completion: 7.52

* * *

In this section we review reported log10 of Ki values for a set of compounds.
# Assay system: UniProtKB P45452
All values: log10 Ki [nM].

Answered examples (2):
Compound | Assay system | log10 of Ki
CC(C)(C)C(NS(=O)(=O)c1ccc(Oc2ccc(F)cc2)cc1)C(=O)NO (stereo in doubt) | UniProtKB P45452 | -1.23
CSC(C)(C)[C@@H](NS(=O)(=O)c1ccc(Oc2ccc(Cl)cc2)cc1)C(=O)NO | UniProtKB P45452 | -1.38

Prompt: Lab note: need log10 of Ki with UniProtKB P45452 for entry CC(C)(C)[C@@H](NS(=O)(=O)c1ccc(Oc2ccccc2)cc1)C(=O)O , please look it up.
Completion: 2.79

Prompt: What log10 of Ki appears in the records for this compound with UniProtKB P45452? CC(C)([C@@H](NS(=O)(=O)c1ccc(Oc2ccc(Br)cc2)cc1)C(=O)NO)[S+]([O-])Cc1ccccn1 (mixture of isomers)
Completion: -1.55

Prompt: Request: log10 of Ki, test system UniProtKB P45452, entry CC(C)(SCc1ccccc1)[C@@H](NS(=O)(=O)c1ccc(Oc2ccccc2)cc1)C(=O)NO
Completion: -0.80

Prompt: // lookup log10 of Ki | system=UniProtKB P45452 | key= CSC(C)(C)[C@@H](NS(=O)(=O)c1ccc(Oc2ccc(Cl)cc2)cc1)C(=O)O
Completion: 2.84

Prompt: Give log10 of Ki (UniProtKB P45452) of the following compound: CC(C)(SCc1ccccn1)[C@@H](NS(=O)(=O)c1ccc(Oc2ccc(-c3ccoc3)cc2)cc1)C(=O)O
Completion: 2.18

Prompt: Quick check: log10 of Ki on UniProtKB P45452, item CC(C)(SCc1cccnc1)[C@@H](NS(=O)(=O)c1ccc(Oc2ccc(F)cc2)cc1)C(=O)O ?
Completion: 3.04

Prompt: Query log10 of Ki on UniProtKB P45452 for CC(C)(C)[C@@H](NS(=O)(=O)c1ccc(Oc2ccccn2)cc1)C(=O)O
Completion: 4.43

Prompt: Could you share what log10 of Ki was measured for CSC(C)(C)[C@@H](NS(=O)(=O)c1ccc(Oc2ccccc2)cc1)C(=O)NO , tested on UniProtKB P45452?
Completion: -1.17

Prompt: Lab note: need log10 of Ki for CC(C)(C)OC(=O)CSC(C)(C)[C@@H](NS(=O)(=O)c1ccc(Oc2ccc(F)cc2)cc1)C(=O)NO on UniProtKB P45452, anyone have it?
Completion: -1.04

Prompt: What value of log10 of Ki on UniProtKB P45452 does Cc1cc(CSC(C)(C)[C@@H](NS(=O)(=O)c2ccc(Oc3ccc(Br)cc3)cc2)C(=O)NO)no1 have?
Completion: -1.89

Prompt: What log10 of Ki appears in the records for this compound with UniProtKB P45452? CC(C)(C)[C@@H](NS(=O)(=O)c1ccc(Oc2ccc(F)cc2)cc1)C(=O)O
Completion: 3.07

Prompt: Give the reported log10 of Ki for CC(C)(C)[C@@H](NS(=O)(=O)c1ccc(Oc2ccc(Cl)cc2)cc1)C(=O)O (system: UniProtKB P45452).
Completion: 2.31

Prompt: Tell me reported log10 of Ki for CC(C)(SCc1ccccc1)[C@@H](NS(=O)(=O)c1ccc(Oc2ccccc2)cc1)C(=O)O , tested with UniProtKB P45452.
Completion: 2.96

* * *

# Ki measurements, system: human collagenase-3 (Coll3) (Homo sapiens, UniProt P45452)
Record the value in nM, omitting the unit from your answer.

Worked cases, Ki given:
Compound | Assay readout | Measured
CC(C)(SCc1ccccn1)[C@@H](NS(=O)(=O)c1ccc(Oc2ccc(I)cc2)cc1)C(=O)O | Ki | 196
CC(C)(SCC(=O)O)[C@@H](NS(=O)(=O)c1ccc(Oc2ccc(F)cc2)cc1)C(=O)O | Ki | 1620

Prompt: # input compound: CC(C)(C)[C@H](NS(=O)(=O)c1ccc(Oc2ccccn2)cc1)C(=O)NO [Example 10c] ; wanted: its Ki
Completion: 4.6

Prompt: Would you mind telling me what Ki value was observed for Cc1cc(CSC(C)(C)[C@@H](NS(=O)(=O)c2ccc(Sc3ccncc3)cc2)C(=O)NO)no1 [Example 10b] ?
Completion: 1.6

Prompt: Entry CC(C)(SCc1ccccn1)[C@@H](NS(=O)(=O)c1ccc(Oc2ccc(F)cc2)cc1)C(=O)NO has what Ki?
Completion: 0.057

* * *

# Assay system: human progelatinase A (GelA) (Homo sapiens)
# Sequence (P08253 110-446 limits assumed): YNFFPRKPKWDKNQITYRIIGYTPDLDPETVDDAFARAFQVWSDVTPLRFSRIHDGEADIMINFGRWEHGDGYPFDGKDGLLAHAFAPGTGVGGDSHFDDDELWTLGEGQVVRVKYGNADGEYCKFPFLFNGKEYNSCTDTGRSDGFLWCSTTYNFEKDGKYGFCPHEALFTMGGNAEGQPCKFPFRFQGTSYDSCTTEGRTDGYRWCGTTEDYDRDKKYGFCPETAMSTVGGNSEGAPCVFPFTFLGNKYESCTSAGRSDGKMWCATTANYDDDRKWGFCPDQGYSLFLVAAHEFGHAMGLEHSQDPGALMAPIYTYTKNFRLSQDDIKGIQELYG
# Measurement protocol: In vitro MMP inhibition assay (hydrolysis of fluorogenic MCA peptide substrate), gelatinase A
# Format: biochemical
# Details: Table 1; Ki,app; MCA peptide substrate 10 μM, 37° C., pH 7.5, 2% DMSO; read-out: Gel A
# Method: The catalytic and fibronectin-like portion of human progelatinase A (GelA) was expressed as a fusion protein with ubiquitin in E. Coli. Assays were carried out on autocatalytically activated material. […] The assay method was based on the hydrolysis of MCA-Pro-Leu-Gly-Leu-DPA-Ala-Arg-NH2 (American Peptide Co.) at 37° C. […] The fluorescence changes were monitored with a Perkin-Elmer LS-50B fluorimeter using an excitation wavelength of 328 nm and an emission wavelength of 393 nm. […]
Assay readout: pKi
Conceptually, pKi converts a concentration in mol/L into minus its log10.

// worked examples, pKi included
Molecule | Assay readout | Measured
CC(C)([C@@H](NS(=O)(=O)c1ccc(Oc2ccc(Br)cc2)cc1)C(=O)NO)[S+]([O-])Cc1ccccn1 (mixture of isomers) | pKi | 10.31
COC(=O)CCSC(C)(C)[C@@H](NS(=O)(=O)c1ccc(Oc2ccc(F)cc2)cc1)C(=O)O | pKi | 6.78
CC(C)(C)[C@@H](NS(=O)(=O)c1ccc(Oc2ccc(F)cc2)cc1)C(=O)O | pKi | 6.82

Prompt: # lookup: pKi of CC(C)(C)C(NS(=O)(=O)c1ccc(Oc2ccc(Cl)cc2)cc1)C(=O)NO (stereo in doubt)
Completion: 10.05

Prompt: Reported pKi, molecule CC(C)(C)[C@@H](NS(=O)(=O)c1ccc(Oc2ccc(Cl)cc2)cc1)C(=O)O : ____
Completion: 7.21

The measurements presented in this section are drawn from patent US5985900A.
